test system: RXF 393 renal; experiment: NCI tumour cell line growth inhibition, 48 h
Listed next: entries and their corresponding TGI.

COMPOUND	TGI
CN1c2ccccc2N(C(=O)c2ccc(Cl)cc2)C(CC(=O)O)c2cccn21 (configuration not stated)	> 100 µM
CC(=O)OCC1OC(OC2CC3C(C)(C)C(OC(C)=O)CC[C@]3(C)C3CCC45CC4(CCC5[C@@H](C)C[C@H](O)C(O)C(C)(C)O)[C@]23C)C(O)C(O)C1O (some centres not stated)	> 10 µM
Cc1ccc([N+](=O)[O-])cc1NC(=O)/C(=N/NC(=S)NN)C1SC(=S)NC1=O (configuration not stated)	> 100 µM
O=c1ccn(C2CC(O)C(CO)O2)c(=O)[nH]1 (configuration not stated)	> 5000 µM
O=C(OCN1C(=O)C2C3C=CC(C2C1=O)C1C2C(=O)N(COC(=O)C4CCCN4)C(=O)C2C31)C1CCCN1 (configuration not stated)	> 100 µM
O=S(=O)(Nc1ccc(Br)c(Cl)c1)c1ccc(-c2cnc(C3CC3)o2)cc1	3.48 µM
CCC1CN(C(=O)c2ccccc2)C(Cc2c[nH]c3ccccc23)C(=O)C1CC(=O)OC (configuration not stated)	> 100 µM
COC1OC(CBr)C(OC(=O)c2ccccc2)C(O)C1Br (configuration not stated)	> 100 µM
Nc1nc(SCc2ccc([N+](=O)[O-])cc2)nc2c1ncn2C1OC(CO)C(O)C1O (configuration not stated)	> 100 µM
CC1=NN(c2nc(N)nc(CSc3nc4n(c(=S)n3)CCN4)n2)C(C)(C)C1	38.7 µM
COc1cccc2c1Cc1cc(-c3ccccc3)[n+](C)n1-2	73.6 µM
CCOC(=O)c1nc2ccccc2nc1NCc1cc(OC)c(OC)c(OC)c1	> 100 µM
CC(=O)O[C@H]1C(=O)[C@@]2(C)[C@H]([C@H](OC(=O)c3ccccc3)[C@]3(O)C[C@H](OC(=O)[C@H](O)[C@@H](NC(=O)c4cccc(N=[N+]=[N-])c4)c4ccccc4)C(C)=C1C3(C)C)[C@]1(OC(C)=O)CO[C@@H]1C[C@@H]2O	0.897 µM
COC(=O)/C(=N\NC(=O)C[N+](C)(C)C)C(C(=O)OC)C(=O)C(=O)Nc1ccccc1C(N)=O (configuration not stated)	> 100 µM
CC1OC(OC2C[C@](O)(C(=O)CF)Cc3c(O)c4c(c(O)c32)C(=O)c2ccccc2C4=O)CC(N)C1O (some centres not stated)	0.268 µM
Cn1c2ccc3cc2c(=S)c2cc(ccc21)OCCOCCOCCOCCOCCO3	> 10 µM
CC(C)CCCC(C)[C@H]1CCC2[C@@H]3CCC4Nc5nocc5C[C@]4(C)C3CC[C@@]21C (some centres not stated)	28.5 µM
CCCCCCCCC/C=C/C=C/C(=O)NCC(=O)NC1C(O)C(O)C(Nc2ncnc3nc[nH]c23)OC1C(O)CO (configuration not stated)	0.0163 µM
CN(C)CCN(C)c1ccc2c(=O)n(CCN(C)C)c(=O)n3c4ccccc4c(=O)c1c23	11.2 µM
O=C(O)c1cc2ccc3ccccc3c2oc1=O	> 100 µM
O=c1c2ccccc2c(=O)n2n1CC=CC2	> 100 µM
O=C(C[n+]1ccc2ccccc2c1)c1ccc2ccc3ccccc3c2c1	16.3 µM
O=C1C2C3C=C4c5ccccc5N(c5ccccc5)C4(C2C(=O)N1c1ccc(Cl)cc1)[C@H]1C(=O)N(c2ccc(Cl)cc2)C(=O)[C@@H]31 (some centres not stated)	> 100 µM
Cc1ccc(NC2=CC(=O)C(NO)c3ccccc32)cc1 (configuration not stated)	12.7 µM
Cc1ccc(/C=C/c2nnc(N/N=C/c3ccc4c(c3)OCO4)[nH]c2=O)cc1	> 100 µM
CNC(=O)OCc1c(CO)nc(SC)n1C	> 100 µM
COc1ccc(CC(=O)N2CCC3(C)CC(=O)CC=C23)cc1OC (configuration not stated)	> 100 µM
O=C1c2cccc(NCCN=Cc3cc([N+](=O)[O-])ccc3O)c2C(=O)c2c(NCCN=Cc3cc([N+](=O)[O-])ccc3O)cccc21	> 100 µM
N.N.N.N.N.[Cl-].[Co+3].c1ccc(-c2nn[n-]n2)cc1	> 100 µM
Cc1cc(Cl)ccc1Nc1nc(C(F)(F)F)ccc1C(=O)N/N=C/c1ccc(Cl)cc1	22.2 µM
Cc1ccc(-c2nc(C#N)c(S(=O)(=O)n3nc(C)cc3N)o2)cc1	3.56 µM
CCC(C)[C@H]1O[C@]2(C=C[C@@H]1C)C[C@@H]1C[C@@H](C/C=C(\C)[C@@H](OC3C[C@H](OC)C(O[C@H]4C[C@H](OC)[C@@H](O)[C@H](C)O4)[C@H](C)O3)[C@@H](C)/C=C/C=C3\CO[C@@H]4[C@H](O)C(C)=C[C@@H](C(=O)O1)[C@]34O)O2 (some centres not stated)	3.5 µM
N#CCCN(CCCN(CCCN(C(=O)Nc1ccccc1)c1ccccc1)C(=O)Nc1ccccc1)C(=O)Nc1ccccc1	> 100 µM
C=CCC(N(C)C(=O)[C@H](Cc1ccccc1)NC(=O)OCc1ccccc1)P(=O)(Oc1ccccc1)Oc1ccccc1 (some centres not stated)	> 100 µM
CC(=O)NNc1nc(C)c(C(=O)/C=C/c2ccccc2Cl)s1	> 100 µM
CCC12CCCN(Cc3ccccc3)C1c1c(n(C)c3ccccc13)C(C(=O)OC)C2 (configuration not stated)	> 239 µM
CC[C@]1(Cc2ccc(OC)c(OC)c2)C=[N+]([O-])O[C@H](OC2CCCC2(c2ccccc2)c2ccccc2)[C@@H]1OC(C)=O (some centres not stated)	4.35 µM

###

tested on: IGROV1 ovarian; assay: NCI tumour cell line growth inhibition, 48 h

MOLECULE	TGI
Cc1nn(-c2ccccc2)c(C)c1/C=N/N=C1\SCC(=O)N1c1ccccc1	93.9 µM
O=C(CCc1ccc(O)c(O)c1)NCCc1cc(O)cc(O)c1	> 100 µM
CN1CNc2nc(N)n(C)c(=O)c2C1	> 10 µM
CN(C)C(=S)/N=c1\ssc(=S)n1Cc1ccccc1	> 46.4 µM
O=C1CSC(c2ccc([N+](=O)[O-])cc2)N1c1ccc(-n2c(-c3ccccc3)nc3ccccc3c2=O)cc1 (stereo not drawn)	> 100 µM
COC(=O)/C(=N\NC(=O)C[N+](C)(C)C)C(C(=O)OC)C(=O)C(=O)Nc1ccccc1C(N)=O (stereo not drawn)	> 100 µM
CCC1CN2C(=N1)c1ccccc1-c1cc(Cl)ccc12 (stereo not drawn)	15.1 µM
O=C1NCc2ccccc2S(=O)(=O)n2cccc21	> 100 µM
CC1CN(c2ccc(Cl)cc2)CC(C)OC(=O)O1 (stereo not drawn)	> 100 µM
CC1=NN(c2nc(N)nc(CSc3nc4n(c(=S)n3)CCN4)n2)C(C)(C)C1	51.5 µM
COc1ccc(CC(=O)N2CCC3(C)CC(=O)CC=C23)cc1OC (stereo not drawn)	> 100 µM
CCOP(=O)(OCC)C(C)(CC)N/C(=N/C(NC(C)=O)(C(F)(F)F)C(F)(F)F)NC1=NC(C(F)(F)F)(C(F)(F)F)N=C(C(F)(F)F)O1 (stereo not drawn)	> 100 µM
c1ccc(CN2CCC3(CC2)SSC2(CCN(Cc4ccccc4)CC2)S3)cc1	> 100 µM
COc1ccc2c3c1O[C@H]1C(OC)C=CC4C(C2)N(Cc2cccs2)CCC341 (stereo partly drawn)	> 100 µM
COc1ccc(C2CC(C)(O)Oc3cc4c(cc32)OCO4)cc1 (stereo not drawn)	> 100 µM
Cc1ccccc1C(=O)N/N=C/c1ccc(Sc2nccn2C)c([N+](=O)[O-])c1	> 100 µM
CNC(=O)OCc1c(CO)nc(SC)n1C	> 100 µM
CCSc1n/c(=C\c2ccco2)c2nncn12	> 100 µM
COc1nc(C#CC2(O)CCCCC2)nc(OC)n1	23.1 µM
CN(C)CCCNc1ccc([N+](=O)[O-])c2nc3ccccc3c(N)c12	6.47 µM
O=C(c1ccc(Cl)cc1)N(C(=O)N1CCC(c2ccccc2)CC1)c1ccccc1	> 100 µM
CC[C@]1(Cc2ccc(OC)c(OC)c2)C=[N+]([O-])O[C@H](OC2CCCC2(c2ccccc2)c2ccccc2)[C@@H]1OC(C)=O (stereo partly drawn)	10.6 µM
CCC(C)C1=C(OC(C)=O)[N+]2([O-])Oc3ccc(-c4c(OC(C)=O)c(OC(C)=O)c(-c5ccc(OC(C)=O)cc5)c(OC(C)=O)c4OC(C)=O)cc3OC2(C(C)CC)C(=O)N1OC(C)=O (stereo not drawn)	34.4 µM

###

Entries and their TGI values follow.
system: BT-549 breast; assay: NCI tumour cell line growth inhibition, 48 h
QUANTITY: TGI

MOLECULE	TARGET_SYSTEM	MEASUREMENT
COc1cccc2c1C(=O)c1c(O)c3c(c(O)c1C2=O)CC(O)(C(O)CO)CC3OC1CC(N2CCOCC2)C(O)C(C)O1 (stereo not given)	BT-549 breast	0.206 µM
O=C(NCCNCCCNC(=O)c1cc(-c2ccccc2)nc2ccccc12)c1cccc(O)c1O	BT-549 breast	11.9 µM
O=c1ccn([C@@H]2C[C@@H]2CO)c(=O)[nH]1	BT-549 breast	> 100 µM
COc1cc(NC(C)CCCN)c2ncccc2c1 (stereo not given)	BT-549 breast	> 100 µM
CCn1c(SCC(=O)NNC(=S)Nc2ccc([N+](=O)[O-])cc2)nc2ccccc2c1=O	BT-549 breast	> 100 µM
COC(=O)C1CN=CN1CCc1ccccc1 (stereo not given)	BT-549 breast	> 100 µM
C[C@H](NC(=O)c1ccc(CNC(=O)/C=C/c2cccc(Oc3ccccc3)c2)cc1)c1ccccc1	BT-549 breast	> 100 µM
COc1cc(OC)nc(-n2c(N)c(C#N)c3ccc([N+](=O)[O-])cc3c2=O)n1	BT-549 breast	> 100 µM
COc1ccc(-c2nc(-c3ccccc3)c(-c3ccccc3)[nH]2)cc1OC1CCCC1	BT-549 breast	> 100 µM
O=c1c2nc3ccccc3c(=O)n2ncn1-c1ccccc1Cl	BT-549 breast	> 100 µM

// data source = PubChem BioAssay (NCI)
